- Tested on: rat aortic ring segments preconstricted with phenylephrine
- protocol summary: Isometric tension studies: vasodilation of preconstricted rat aortic ring segments
- Format: cell-based
- condition set: Log [M] −3.5
metric name: Isometric tension, relaxation (Mean ± SEM) (%)

compound	reading unit	readout number
O=C(NCCO[N+](=O)[O-])OCCl [Linker 2, chloromethyl N-2-nitrooxyethylcarbamate]	%	96.18
CCc1ccc(CCOc2ccc(CC3SC(=O)NC3=O)cc2)nc1 (racemic) [Pioglitazone]	%	55.47
CCc1ccc(CCOc2ccc(CC3SC(=O)N(COC(=O)NCCO[N+](=O)[O-])C3=O)cc2)nc1 (stereo not shown) [compound 1]	%	98.13
O=[N+]([O-])O[C@@H]1CO[C@H]2[C@@H]1OC[C@@H]2O [ISMN, Isosorbide-5-mononitrate]	%	64.17

----------
- Test system: rat aortic ring segments preconstricted with phenylephrine
- protocol summary: Isometric tension studies: vasodilation of preconstricted rat aortic ring segments
- Type: cell-based
- condition set: Log [M] −7
metric name: Isometric tension, relaxation (Mean ± SEM) (%)

compound	readout number
O=[N+]([O-])O[C@@H]1CO[C@H]2[C@@H]1OC[C@@H]2O [ISMN, Isosorbide-5-mononitrate]	0
CCc1ccc(CCOc2ccc(CC3SC(=O)NC3=O)cc2)nc1 (racemic)	3.42
CCc1ccc(CCOc2ccc(CC3SC(=O)N(COC(=O)NCCO[N+](=O)[O-])C3=O)cc2)nc1 (stereo not shown)	12.82
O=C(NCCO[N+](=O)[O-])OCCl [Linker 2, chloromethyl N-2-nitrooxyethylcarbamate]	16.85

----------
- System: rat aortic ring segments preconstricted with phenylephrine
- protocol summary: Isometric tension studies: vasodilation of preconstricted rat aortic ring segments
- Format: cell-based
- condition set: Log [M] −5
Quick reference: Isometric tension, relaxation (Mean ± SEM) of the listed items.
metric name: Isometric tension, relaxation (Mean ± SEM) (%)

compound	readout number
O=C(NCCO[N+](=O)[O-])OCCl [Linker 2, chloromethyl N-2-nitrooxyethylcarbamate]	80.97
CCc1ccc(CCOc2ccc(CC3SC(=O)NC3=O)cc2)nc1 (racemic) [Pioglitazone]	8.30
O=[N+]([O-])O[C@@H]1CO[C@H]2[C@@H]1OC[C@@H]2O [ISMN, Isosorbide-5-mononitrate]	9.29
CCc1ccc(CCOc2ccc(CC3SC(=O)N(COC(=O)NCCO[N+](=O)[O-])C3=O)cc2)nc1 (stereo not shown) [compound 1]	70.11

----------
- Test system: rat aortic ring segments preconstricted with phenylephrine
- protocol summary: Isometric tension studies: vasodilation of preconstricted rat aortic ring segments
- Assay type: cell-based
- condition set: Log [M] −6
metric name: Isometric tension, relaxation (Mean ± SEM) (%)

compound	reading unit	readout number
O=C(NCCO[N+](=O)[O-])OCCl [Linker 2, chloromethyl N-2-nitrooxyethylcarbamate]	%	51.19
CCc1ccc(CCOc2ccc(CC3SC(=O)N(COC(=O)NCCO[N+](=O)[O-])C3=O)cc2)nc1 (stereo not shown)	%	43.34
CCc1ccc(CCOc2ccc(CC3SC(=O)NC3=O)cc2)nc1 (racemic)	%	5.40
O=[N+]([O-])O[C@@H]1CO[C@H]2[C@@H]1OC[C@@H]2O [ISMN, Isosorbide-5-mononitrate]	%	3.73
